The reported measurements were obtained from patent US11065294B2.

- Procedure summary: in vivo
- Applied conditions: male, SD, rat, plasma, oral
Structures can show the parent of a compound that is named as a salt.

Compound | Measurement unit | AUC(0-inf)
CC/C(=C(\c1ccccc1)c1ccc(OCCN(C)C)cc1)c1ccccc1 [Tamoxifen, Tamoxifen citrate] | ng·h/mL | 6860

###

- Procedure summary: in vivo
- Applied conditions: male, SD, rat, plasma, oral
Where a name gives a salt, the structure may show the parent alone.
Measured parameter: Tmax (h)

Compound | Measurement unit | Assay result
CC/C(=C(\c1ccccc1)c1ccc(OCCN(C)C)cc1)c1ccccc1 [Tamoxifen, Tamoxifen citrate] | h | 5.6

###

- Procedure summary: in vivo
- Applied conditions: male, SD, rat, plasma, po, 50 mg/kg, MRTinf of gefitinib, first gefitinib administration
Measured parameter: MRT inf (h)

Compound string | Assay result
COc1cc2ncnc(Nc3ccc(F)c(Cl)c3)c2cc1OCCCN1CCOCC1 | 5.94

###

- Procedure summary: in vivo
- Applied conditions: male, SD, rat, plasma, po, 50 mg/kg, Cmax of gefitinib, first gefitinib administration

Compound | Cmax
COc1cc2ncnc(Nc3ccc(F)c(Cl)c3)c2cc1OCCCN1CCOCC1 [Gefitinib] | 3010 ng/mL

###

- Procedure summary: in vivo
- Applied conditions: male, SD, rat, plasma, oral, Blood Tmax of tamoxifen, first tamoxifen administration
Where a name gives a salt, the structure may show the parent alone.

Molecule | Tmax (h)
CC/C(=C(\c1ccccc1)c1ccc(OCCN(C)C)cc1)c1ccccc1 [Tamoxifen, Tamoxifen citrate] | 3.6

###

- Procedure summary: in vivo
- Applied conditions: male, SD, rat, plasma, po, 50 mg/kg

Compound | half-life (h)
COc1cc2ncnc(Nc3ccc(F)c(Cl)c3)c2cc1OCCCN1CCOCC1 [Gefitinib] | 2.59

###

- Procedure summary: in vivo
- Applied conditions: male, SD, rat, plasma, oral
Counter-ions that a name gives are not always drawn.

Molecule | Cmax
CC/C(=C(\c1ccccc1)c1ccc(OCCN(C)C)cc1)c1ccccc1 [Tamoxifen, Tamoxifen citrate] | 0.364 µg/mL

###

- Procedure summary: in vivo
- Applied conditions: male, SD, rat, plasma, po, 50 mg/kg, Cmax of gefitinib, 9th administration

Compound string | Measurement unit | Cmax
COc1cc2ncnc(Nc3ccc(F)c(Cl)c3)c2cc1OCCCN1CCOCC1 | ng/mL | 3120

###

- Procedure summary: in vivo
- Applied conditions: male, SD, rat, plasma, po, 50 mg/kg, Blood tamoxifen AUC0-t, first tamoxifen administration
Structures can show the parent of a compound that is named as a salt.

Molecule | AUC(0-t)
CC/C(=C(\c1ccccc1)c1ccc(OCCN(C)C)cc1)c1ccccc1 [Tamoxifen, Tamoxifen citrate] | 3230 ng·h/mL

###

- Procedure summary: in vivo
- Applied conditions: male, SD, rat, plasma, oral, Blood MRTinf of tamoxifen, 8th administration
Where a name gives a salt, the structure may show the parent alone.
Measured parameter: MRT inf (h)

Compound | Assay result
CC/C(=C(\c1ccccc1)c1ccc(OCCN(C)C)cc1)c1ccccc1 [Tamoxifen, Tamoxifen citrate] | 28.5

###

- Procedure summary: in vivo
- Applied conditions: male, SD, rat, plasma, po, 50 mg/kg

Compound string | Cmax, ng/mL
COc1cc2ncnc(Nc3ccc(F)c(Cl)c3)c2cc1OCCCN1CCOCC1 | 2160

###

- Procedure summary: in vivo
- Applied conditions: male, SD, rat, plasma, oral, Blood t1/2 of tamoxifen, first tamoxifen administration
Where a name gives a salt, the structure may show the parent alone.

Compound | half-life
CC/C(=C(\c1ccccc1)c1ccc(OCCN(C)C)cc1)c1ccccc1 [Tamoxifen, Tamoxifen citrate] | 13.1 h

###

- Procedure summary: in vivo
- Applied conditions: male, SD, rat, plasma, po, 50 mg/kg, AUC0-t of gefitinib, 9th administration

Compound string | AUC(0-t), ng·h/mL
COc1cc2ncnc(Nc3ccc(F)c(Cl)c3)c2cc1OCCCN1CCOCC1 | 13500
